Hey, just so you know, these numbers are from patent US5541162A.

Test system: rat back passive anaphylactic reaction
Test: Effect on rat back passive anaphylactic reaction
Format: in vivo
Details: male Wistar rats; 30 mg/kg into caudal vein 1 minute before antigen; dye extracted after 30 minutes; n=5
Method: Method: Male Wistar rats (body weight about 130 g) purchased from Shizuoka Laboratory Animal Center were used as test animals. The back hair of each rat was clipped off and the antiserum was injected intradermally at the back. After 3 days, the test substance 30 mg/kg was injected into the caudal vein (control: physiological saline). […]
Reported values of Absorbance (extracted Evans blue dye), mean ± S.E. for individual entries
PROPERTY_LABEL: Absorbance (extracted Evans blue dye), mean ± S.E.

COMPOUND	TARGET_OR_SYSTEM	OBSERVED_MEASUREMENT
CC(C)OC(=O)CNC(=O)[C@H](CSC1CC(=O)NC1=O)NC(=O)CC[C@H](N)C(=O)O (stereo partly shown)	rat back passive anaphylactic reaction	0.642
NC(=O)CC(SC[C@H](NC(=O)CC[C@H](N)C(=O)O)C(=O)NCC(=O)O)C(N)=O (stereo partly shown)	rat back passive anaphylactic reaction	0.565
CC(C)OC(=O)CNC(=O)[C@H](CSC(CC(N)=O)C(N)=O)NC(=O)CC[C@H](N)C(=O)O (stereo partly shown)	rat back passive anaphylactic reaction	0.492
CCN1C(=O)CC(SC[C@H](NC(=O)CC[C@H](N)C(=O)O)C(=O)NCC(=O)O)C1=O (stereo partly shown)	rat back passive anaphylactic reaction	0.514
CCOC(=O)CC(SC[C@H](NC(=O)CC[C@H](N)C(=O)O)C(=O)NCC(=O)OC(C)C)C(=O)OCC (stereo partly shown)	rat back passive anaphylactic reaction	0.484
N[C@@H](CCC(=O)N[C@@H](CSC1CC(=O)NC1=O)C(=O)NCC(=O)O)C(=O)O (stereo partly drawn) [R1 = H, R2 R3 = NH, S-[(1,2-Dicarboximido)ethyl]glutathione]	rat back passive anaphylactic reaction	0.459
CCCCOC(=O)CC(SC[C@H](NC(=O)CC[C@H](N)C(=O)O)C(=O)NCC(=O)OC(C)C)C(=O)OCCCC (stereo partly shown)	rat back passive anaphylactic reaction	0.492
